# systemUnderTest: Ubiquitin carboxyl-terminal hydrolase 28 (Homo sapiens) (UniProt Q96RU2)
# Sequence (Q96RU2 whole entry, looked up): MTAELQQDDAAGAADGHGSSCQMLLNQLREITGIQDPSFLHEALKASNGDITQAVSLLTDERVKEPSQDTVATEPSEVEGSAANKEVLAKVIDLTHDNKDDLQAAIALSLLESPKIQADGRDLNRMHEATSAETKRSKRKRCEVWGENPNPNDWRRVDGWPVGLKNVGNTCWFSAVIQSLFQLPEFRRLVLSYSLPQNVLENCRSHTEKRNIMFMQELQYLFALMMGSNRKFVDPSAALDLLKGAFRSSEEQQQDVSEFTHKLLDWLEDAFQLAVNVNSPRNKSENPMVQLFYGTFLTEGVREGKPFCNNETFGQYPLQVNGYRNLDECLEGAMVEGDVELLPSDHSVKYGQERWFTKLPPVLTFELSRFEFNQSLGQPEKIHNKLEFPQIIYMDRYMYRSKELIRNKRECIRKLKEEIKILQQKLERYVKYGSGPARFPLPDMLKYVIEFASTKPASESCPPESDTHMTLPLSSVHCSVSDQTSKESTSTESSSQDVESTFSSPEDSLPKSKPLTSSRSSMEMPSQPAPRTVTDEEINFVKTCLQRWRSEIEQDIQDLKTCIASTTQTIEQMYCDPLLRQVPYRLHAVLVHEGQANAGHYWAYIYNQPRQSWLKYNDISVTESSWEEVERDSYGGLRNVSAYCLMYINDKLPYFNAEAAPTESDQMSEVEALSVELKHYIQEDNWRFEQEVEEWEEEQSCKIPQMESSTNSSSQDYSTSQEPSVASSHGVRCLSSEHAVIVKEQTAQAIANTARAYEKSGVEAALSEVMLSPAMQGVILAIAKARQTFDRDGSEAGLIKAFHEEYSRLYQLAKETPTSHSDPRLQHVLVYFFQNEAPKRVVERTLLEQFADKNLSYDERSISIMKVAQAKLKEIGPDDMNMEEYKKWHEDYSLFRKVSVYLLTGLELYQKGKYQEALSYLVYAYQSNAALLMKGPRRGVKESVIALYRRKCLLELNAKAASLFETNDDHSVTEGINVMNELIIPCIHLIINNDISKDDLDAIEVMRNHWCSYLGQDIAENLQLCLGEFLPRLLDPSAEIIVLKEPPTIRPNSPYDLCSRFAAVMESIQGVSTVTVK
# testSummary: Concentration-response biochemical assay confirming initial hits as inhibitors of ubiquitin-specific protease 28 (AID 1645866)
# experimentalSetup: purified USP28, ubiquitin-rhodamine fluorescence, 30 min
The source made the active and inactive calls.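 How the source made its calls: active means in confirmatory dose-response testing, peak deubiquitinase inhibition of 30% or more; inactive means the rest.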
Outcome codes: active, inactive

compound: COc1ccc(OC)c(CCNC(=O)CCC2=NS(=O)(=O)c3ccc(C(F)(F)F)cc3N2)c1
systemUnderTest: Ubiquitin carboxyl-terminal hydrolase 28 (Homo sapiens) (UniProt Q96RU2)
label: active

compound: CCCC1Cc2c(sc3nc(SCC)nc(N)c23)CO1 (stereo unspecified)
systemUnderTest: Ubiquitin carboxyl-terminal hydrolase 28 (Homo sapiens) (UniProt Q96RU2)
label: active

compound: O=C(Nc1ccc(F)cc1)Nc1ccccc1OCc1cc(=O)n2ccccc2n1
systemUnderTest: Ubiquitin carboxyl-terminal hydrolase 28 (Homo sapiens) (UniProt Q96RU2)
label: active

compound: COCCNC(=O)c1ccnn1-c1ccc2ccc(-c3cccnc3)cn12
systemUnderTest: Ubiquitin carboxyl-terminal hydrolase 28 (Homo sapiens) (UniProt Q96RU2)
label: inactive

compound: COc1ccc(NC2c3ccccc3C(=O)N2c2ccccn2)cc1 (stereo unspecified)
systemUnderTest: Ubiquitin carboxyl-terminal hydrolase 28 (Homo sapiens) (UniProt Q96RU2)
label: inactive

compound: Cc1cccc(C(=O)Nc2cccc(SC(C(=O)Nc3ccc(O)c(C(=O)O)c3)c3ccccc3)c2)c1 (stereo unspecified)
systemUnderTest: Ubiquitin carboxyl-terminal hydrolase 28 (Homo sapiens) (UniProt Q96RU2)
label: active

compound: CCCCOc1ccc(C(=O)Nc2ccc3c(c2)CCC(=O)N3CCC)cc1
systemUnderTest: Ubiquitin carboxyl-terminal hydrolase 28 (Homo sapiens) (UniProt Q96RU2)
label: active

compound: CCOC(=O)c1nc(Nc2ccc(OC)c(Cl)c2)c2ccccc2n1
systemUnderTest: Ubiquitin carboxyl-terminal hydrolase 28 (Homo sapiens) (UniProt Q96RU2)
label: active

compound: CCOc1ccc(Nc2cc(C(=O)NCCc3ccccc3)c3ccccc3n2)cc1
systemUnderTest: Ubiquitin carboxyl-terminal hydrolase 28 (Homo sapiens) (UniProt Q96RU2)
label: active

compound: Fc1cc(F)c2[nH]cc(-c3nnnn3-c3ccc4ccccc4c3)c2c1
systemUnderTest: Ubiquitin carboxyl-terminal hydrolase 28 (Homo sapiens) (UniProt Q96RU2)
label: active

compound: CCC1(C)Cc2c(sc3nc(SCC(=O)Nc4ccc(C(C)=O)cc4)nc(N)c23)CO1 (stereo unspecified)
systemUnderTest: Ubiquitin carboxyl-terminal hydrolase 28 (Homo sapiens) (UniProt Q96RU2)
label: active

---

# reported IC50; entries follow
# systemUnderTest: Ubiquitin carboxyl-terminal hydrolase 28 (Homo sapiens)
# testSummary: Concentration-response biochemical assay confirming initial hits as inhibitors of ubiquitin-specific protease 28 (AID 1645866)
# experimentalSetup: purified USP28, ubiquitin-rhodamine fluorescence, 30 min
Active and inactive are the calls of the source.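 Rule for the calls: active = in confirmatory dose-response testing, peak deubiquitinase inhibition of 30% or more; inactive = the rest.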

molecule: CC1=C(c2ccc(F)cc2)S(=O)(=O)N=C1Nc1ccc(Cl)cc1
systemUnderTest: Ubiquitin carboxyl-terminal hydrolase 28 (Homo sapiens)
IC50: 28.1 µM
--
molecule: COc1ccc(-c2nc(-c3nnn(Cc4ccc(F)cc4)c3C)no2)c(OC)c1
systemUnderTest: Ubiquitin carboxyl-terminal hydrolase 28 (Homo sapiens)
IC50: 5.4 µM
--
molecule: CC(=O)c1sc(NC(=O)c2ccccc2-c2ccc(C(F)(F)F)cc2)nc1C
systemUnderTest: Ubiquitin carboxyl-terminal hydrolase 28 (Homo sapiens)
IC50: 18.8 µM
--
molecule: Cc1ccc(C)c(Cn2nnc3c(=O)[nH]c(C4CCN(S(=O)(=O)c5ccc(S(=O)(=O)NC6CC6)cc5)CC4)nc32)c1
systemUnderTest: Ubiquitin carboxyl-terminal hydrolase 28 (Homo sapiens)
IC50: 9.09 µM
--
molecule: CCOc1ccc(NC(=O)Cn2cc(C(=O)c3ccc(Cl)cc3)c(=O)c3cc(OC)ccc32)cc1
systemUnderTest: Ubiquitin carboxyl-terminal hydrolase 28 (Homo sapiens)
IC50: 4.32 µM
--
molecule: O=C(Cn1c(=O)n(CC(=O)NC2CCCC2)c(=O)c2ccccc21)Nc1cc(Cl)ccc1Cl
systemUnderTest: Ubiquitin carboxyl-terminal hydrolase 28 (Homo sapiens)
IC50: 4.52 µM
--
molecule: CCOC(=O)c1ccc(NC(=O)Cn2c(=O)n(CC(=O)NCc3ccco3)c(=O)c3ccccc32)cc1
systemUnderTest: Ubiquitin carboxyl-terminal hydrolase 28 (Homo sapiens)
IC50: 2.31 µM
--
molecule: O=S1(=O)CCN(CC2CCCO2)c2c(Oc3ccccc3)nc(F)c(Cl)c21 (configuration not stated)
systemUnderTest: Ubiquitin carboxyl-terminal hydrolase 28 (Homo sapiens)
IC50: > 50 µM (inactive)
--
molecule: Cc1nn(CC(=O)Nc2ccc(Br)c3cccnc23)c(=O)c2ccccc12
systemUnderTest: Ubiquitin carboxyl-terminal hydrolase 28 (Homo sapiens)
IC50: 21.5 µM
--
molecule: CCCc1nc2sc3c(NCCc4ccc(OC)c(OC)c4)ncnc3c2c2c1CCC2
systemUnderTest: Ubiquitin carboxyl-terminal hydrolase 28 (Homo sapiens)
IC50: < 0.05 µM
--
molecule: O=C(c1cnccn1)N1CCc2[nH]c3ccc(F)cc3c2C1
systemUnderTest: Ubiquitin carboxyl-terminal hydrolase 28 (Homo sapiens)
IC50: > 50 µM (inactive)
--
molecule: Cc1ccc(S(=O)(=O)N2CCCCC2)cc1NC(=O)Cc1cccc(F)c1
systemUnderTest: Ubiquitin carboxyl-terminal hydrolase 28 (Homo sapiens)
IC50: 5.05 µM
--
molecule: Cc1cc(C(=O)N2CCOCC2)c(C)n1-c1ccc(O)cc1
systemUnderTest: Ubiquitin carboxyl-terminal hydrolase 28 (Homo sapiens)
IC50: 41.7 µM
--
molecule: N#Cc1ccc(COC(=O)c2ccc3ccccc3n2)cc1
systemUnderTest: Ubiquitin carboxyl-terminal hydrolase 28 (Homo sapiens)
IC50: 3.62 µM
--
molecule: O=C(C(c1ccccc1)c1ccccc1)N1CCC(c2nc3c(nnn3Cc3c(F)cccc3Cl)c(=O)[nH]2)CC1
systemUnderTest: Ubiquitin carboxyl-terminal hydrolase 28 (Homo sapiens)
IC50: 6.96 µM
--
molecule: Cc1nc(Nc2ncc(C)s2)cc(C2CN(C(=O)Cc3ccccc3)CCO2)n1 (configuration not stated)
systemUnderTest: Ubiquitin carboxyl-terminal hydrolase 28 (Homo sapiens)
IC50: 43.8 µM
--
molecule: COC1=C(C2=C(OC)C(=O)c3cc4c(c(O)c3C2=O)C(=O)OC(C)C4)C(=O)c2c(cc3c(c2O)C(=O)OC(C)C3)C1=O (configuration not stated)
systemUnderTest: Ubiquitin carboxyl-terminal hydrolase 28 (Homo sapiens)
IC50: 1.05 µM

---

Reported IC50 values for a set of compounds
# systemUnderTest: Ubiquitin carboxyl-terminal hydrolase 28 (Homo sapiens) (UniProt Q96RU2)
# testSummary: Concentration-response biochemical assay confirming initial hits as inhibitors of ubiquitin-specific protease 28 (AID 1645866)
# experimentalSetup: purified USP28, ubiquitin-rhodamine fluorescence, 30 min
Active and inactive are the calls of the source.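 The calls were made as follows: active = in confirmatory dose-response testing, peak deubiquitinase inhibition of 30% or more; inactive = the rest.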
measuredMetric: IC50

compound: Cc1cc2nc(/C=C/c3ccccc3)n(Cc3cccc(F)c3)c2cc1C
assayResult: 4.94 µM
--
compound: CCOc1ccc(-c2cc3nc(C4CCN(C(=O)OC(C)(C)C)CC4)c(C(=O)Nc4cc(F)ccc4F)cn3n2)cc1
assayResult: > 50 µM (inactive)
--
compound: CC(C)CCN1C(=O)C2C(C(=O)Nc3ccc(Oc4ccccc4)cc3)C3C=CC2(O3)C1C(=O)NC1CCCCC1 (centres undefined)
assayResult: 37.5 µM
--
compound: COc1ccc(CCNC(=O)c2c(N)n(-c3cccc(Cl)c3)c3nc4ccccc4nc23)cc1
assayResult: > 50 µM (inactive)
--
compound: O=C(Cc1cccnc1)Nc1ccc(N2CCN(C3CCCCC3)C2=O)nc1
assayResult: > 50 µM (inactive)
--
compound: Cc1nnc(NC(=O)C2CCN(c3ccc(S(N)(=O)=O)cc3[N+](=O)[O-])CC2)o1
assayResult: 11.1 µM
--
compound: O=C(Cc1ccc(Cl)c(Cl)c1)OCC(=O)c1c[nH]c2ccccc12
assayResult: > 50 µM (inactive)
--
compound: COc1ccc(/C=C/C(=O)N2CCc3ccccc32)cc1S(=O)(=O)N1CCOCC1
assayResult: > 50 µM (inactive)
--
compound: O=C(Nc1ccccc1Cl)N(Cc1cc2cc3c(cc2[nH]c1=O)OCCO3)C1CCCCC1
assayResult: 49.1 µM
--
compound: Cc1noc(NS(=O)(=O)c2ccc(NC(=O)CSc3ccc4ccccc4c3)cc2)c1C
assayResult: > 50 µM (inactive)
--
compound: CCOc1ccc(CC(=O)Nc2ccc(-c3cn4cccnc4n3)cc2)cc1
assayResult: 14.6 µM
--
compound: O=C(Nc1cccc(-c2nc3ccccc3[nH]2)c1)c1cc2ccccc2oc1=O
assayResult: 2.17 µM
--
compound: COc1ccccc1-c1nc(Cn2nnc(C(=O)Nc3cc(C)cc(C)c3)c2N)c(C)o1
assayResult: 37.4 µM
--
compound: Fc1ccccc1N1CCN(c2ncc3c(n2)CCN(Cc2ccccn2)C3)CC1
assayResult: 31 µM
--
compound: COc1ccc(C(=O)Nc2sc3c(c2C(=O)NCc2cccnc2)CCCC3)cc1
assayResult: 11.8 µM
--
compound: CNC(=O)c1cc2nc(N(C)C)n(-c3ccccc3)c2s1
assayResult: 27.1 µM
--
compound: FC(F)(F)c1cccc(CSc2ccc3nnc(-c4ccccn4)n3n2)c1
assayResult: 1.75 µM
--
compound: NS(=O)(=O)c1cccc(NS(=O)(=O)c2ccc(/C=C/C(=O)OCC(=O)c3ccc(Br)cc3)cc2)c1
assayResult: > 50 µM (inactive)
--
compound: COC1=CC(=O)c2c(O)c(C)c(CC(C)=O)c(O)c2C1=O
assayResult: > 50 µM (inactive)
